Can you tell me DC50 for the items I'm about to list?
# target-entity: HPK1 (Homo sapiens, UniProt Q92918)
# Construct: A HiBiT tag was introduced by CRISPR on the N terminus of HPK1 in Jurkat cells; host or cells: Jurkat cells (ATCC TIB-152), monoclonal line with CRISPR knock-in of HiBiT at the endogenous HPK1 locus
# Sequence (Q92918 whole entry): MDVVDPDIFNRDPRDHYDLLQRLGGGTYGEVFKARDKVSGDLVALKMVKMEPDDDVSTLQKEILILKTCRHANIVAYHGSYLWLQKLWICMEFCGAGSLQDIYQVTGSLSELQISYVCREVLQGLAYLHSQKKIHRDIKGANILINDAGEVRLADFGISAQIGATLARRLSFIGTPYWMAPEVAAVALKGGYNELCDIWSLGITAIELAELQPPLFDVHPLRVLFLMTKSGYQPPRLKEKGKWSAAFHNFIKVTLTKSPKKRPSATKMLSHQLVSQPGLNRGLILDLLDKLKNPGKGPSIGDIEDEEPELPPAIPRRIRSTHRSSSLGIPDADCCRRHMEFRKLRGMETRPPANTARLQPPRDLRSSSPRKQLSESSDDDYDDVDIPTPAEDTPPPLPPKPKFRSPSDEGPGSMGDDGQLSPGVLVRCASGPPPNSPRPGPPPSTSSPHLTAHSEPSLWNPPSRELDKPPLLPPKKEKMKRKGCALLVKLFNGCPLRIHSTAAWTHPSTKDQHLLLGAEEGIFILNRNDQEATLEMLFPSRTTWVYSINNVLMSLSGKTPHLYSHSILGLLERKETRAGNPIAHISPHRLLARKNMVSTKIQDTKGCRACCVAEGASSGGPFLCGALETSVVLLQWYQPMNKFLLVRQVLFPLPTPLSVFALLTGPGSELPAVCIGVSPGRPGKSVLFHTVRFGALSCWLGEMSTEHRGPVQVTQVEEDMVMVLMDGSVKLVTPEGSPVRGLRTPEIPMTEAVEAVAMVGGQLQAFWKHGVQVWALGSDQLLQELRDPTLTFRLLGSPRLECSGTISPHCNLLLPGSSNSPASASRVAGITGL
# assay-info: HPK1 Cellular HiBit Degradation Assay
# Format: cell-based
# measurement-parameters: HiBiT HPK1 Jurkat cells, 24 hrs; concentration at which 50% of HPK1 was remaining; read-out: DC50 Category

Note to self: DC50 recorded for CC(C)n1cnc2cc(-c3ccc4c(c3)N([C@H]3C[C@@H](N5CCCCC5)C3)C(=O)C43CCN(C(=O)C4CCN(C(=O)[C@H]5CC[C@H](Nc6cncc(C7CCC(=O)NC7=O)c6)CC5)CC4)CC3)nc(Nc3ccccc3F)c21 (mixture of isomers) was 100 to 500 nM

Reported DC50 of CC(C)n1cnc2cc(-c3ccc4c(c3)N([C@H]3C[C@@H](N5CCCCC5)C3)C(=O)C43CCN(C(=O)C4C5CN(C(=O)C6CCN(c7ccc(C8CCC(=O)NC8=O)cn7)CC6)CC54)CC3)nc(Nc3ccccc3F)c21 (mixture of isomers) : < 100 nM

Attribution: patent US12091426B2
